# Tested on: 996289-038-R-J1-PDC complex spheroid viability;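 further: spheroids exposed to the agents for 7 days before readout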
# ASSAY METHOD TEXT: Anticancer human tumor 996289-038-R-J1-PDC patient-derived colon adenocarcinoma cell line growth inhibition [CLK]; active means viability on the fitted dose curve at most 10% of control; inactive means the rest
# DETAILS: second compound 1 µM; first compound 0.0316 µM
Just give me one of these, please: true (active), false (inactive)

Would you please look over these solved cases?
1. O=c1[nH]cc(F)c(=O)[nH]1 + CNC(=O)c1ccc(Nc2nc(OC3CCCC3)c3c(-c4ccc5nc(C)oc5c4)c[nH]c3n2)c(OC)c1
false
2. C=C(F)C(=O)N1CCN(c2nc(OCC3CCCN3C)nc3c2CCN(c2cccc4cccc(Cl)c24)C3)CC1CC#N (stereo not drawn) + CN1CCN(c2cc(C(=O)Nc3cc4cc(-c5cnn(C)c5)ccc4cn3)ccn2)CC1
true
3. CC(Nc1ccc2c(c1)OCCn1cc(N3C(=O)OCC3C(F)F)nc1-2)C(N)=O (stereo not drawn) + CNC(=O)c1ccc(Nc2nc(OC3CCCC3)c3c(-c4ccc5nc(C)oc5c4)c[nH]c3n2)c(OC)c1
false
4. CC1COCCN1c1cc(C2(S(C)(=N)=O)CC2)nc(-c2ccnc3[nH]ccc23)n1 (stereo not drawn) + CN1CCN(c2cc(C(=O)Nc3cc4cc(-c5cnn(C)c5)ccc4cn3)ccn2)CC1
true
5. Nc1ccn(C2OC(CO)C(O)C2(F)F)c(=O)n1 (stereo not drawn) + CNC(=O)c1ccc(Nc2nc(OC3CCCC3)c3c(-c4ccc5nc(C)oc5c4)c[nH]c3n2)c(OC)c1
false
6. CC(CO)NC(=O)c1cc(-c2ccc(Cl)cc2)nn(-c2cnn(C)c2)c1=O (stereo not drawn) + CNC(=O)c1ccc(Nc2nc(OC3CCCC3)c3c(-c4ccc5nc(C)oc5c4)c[nH]c3n2)c(OC)c1
false

Exam item: How did this test come out for COC1C=CCC(C)C(C)S(=O)(=O)NC(=O)c2ccc3c(c2)N(CC2CCC21)CC1(CCCc2cc(Cl)ccc21)CO3 (stereo not drawn) + CNC(=O)c1ccc(Nc2nc(OC3CCCC3)c3c(-c4ccc5nc(C)oc5c4)c[nH]c3n2)c(OC)c1 ?
Marked response: false

Exam item: For CCc1c2c(nc3ccc(O)cc13)-c1cc3c(c(=O)n1C2)COC(=O)[C@]3(O)CC + CN1CCN(c2cc(C(=O)Nc3cc4cc(-c5cnn(C)c5)ccc4cn3)ccn2)CC1 , which call appears in the assay record?
Marked response: true

Exam item: Test call for this molecule, please: CC1(C)CCC(CN2CCN(c3ccc(C(=O)NS(=O)(=O)c4ccc(NCC5CCOCC5)c([N+](=O)[O-])c4)c(Oc4cnc5[nH]ccc5c4)c3)CC2)=C(c2ccc(Cl)cc2)C1 + CN1CCN(c2cc(C(=O)Nc3cc4cc(-c5cnn(C)c5)ccc4cn3)ccn2)CC1
Marked response: true

Exam item: Lab log entry: Nc1ccccc1NC(=O)c1ccc(CNC(=O)OCc2cccnc2)cc1 + CNC(=O)c1ccc(Nc2nc(OC3CCCC3)c3c(-c4ccc5nc(C)oc5c4)c[nH]c3n2)c(OC)c1 — outcome as called in the assay?
Marked response: false

Hello, the source for this data is PubChem BioAssay AID2060600, in case you need it.
